- Tested on: Apolipoprotein B (Apo B) (NM_000384)
- Procedure Details: Apo B gene expression in Hep3B cells after Lipofectamine 2000 transfection, real-time PCR SYBR green (Example 50)
- Type: cell-based, Homo Sapiens
- Condition Details: Apo B mRNA, Hep3B cells, 24 hours after transfection; read-out: IC50 (nM) (rounded up to single digit)
[Rp] = phosphorothioate linkage, Rp; [Sp] = phosphorothioate linkage, Sp
Readout Type: IC50 (nM)
One number for each entry, in nM.

Consider the substance (Sp, Rp, Rp, Sp, Rp, Rp, Sp, Rp, Rp, Sp, Rp, Rp, Sp, Rp, Rp, Sp, Rp, Rp, Sp)-d[GsCsCsTsCsAsGsTsCsTsGsCsTsTsCsGsCsAsCsC] (DNA GCCTCAGTCTGCTTCGCACC; DNA, linkages [Sp][Rp][Rp][Sp][Rp][Rp][Sp][Rp][Rp][Sp][Rp][Rp][Sp][Rp][Rp][Sp][Rp][Rp][Sp] (s phosphorothioate, o phosphodiester), methylation of C not given here) [Oligonucleotide 115] and give its measured IC50.
3

====

- System: Mouse Apolipoprotein B/GAPDH mRNA
- Procedure Details: Apolipoprotein B mRNA assay in transfected mouse primary hepatocytes (Example 88)
- Type: cell-based
- Condition Details: relative IC50, bottom 0 and top 100 constrained, read-out: IC50 for Suppression of Mouse Apolipoprotein B/GAPDH mRNA Levels
- Procedure: C57BL6 male mice, 7 weeks of age were used to extract and plate mouse primary hepatocytes in 96-well plates (without overlay) (Celsis/Bioreclamation IVT). Transfection of primary hepatocytes was carried out with lipofectin (Life Technologies, cat. No. 18292-037) using the manufacturer's protocol, using 0.5 ul of Lipofectin per 96-plate well. Twelve, 1:3 siRNA duplex dilutions were created starting at 6 uM. […]
Readout Type: IC50 (nM)
Answers are plain numbers, in nM.

Find the measured IC50: item (All(Rp))-GsTs5mCs5mCs5mCsTsGsAsAsGsAsTsGsTs5mCsAsAsTsGs5mC (DNA GTCCCTGAAGATGTCAATGC; chemistry not fully specified) [ONT-82] , target or system Mouse Apolipoprotein B/GAPDH mRNA.
64.4
